# TARGET UNDER TEST: NGF (nerve growth factor) (Homo sapiens, UniProt P01138 P01138:122-241)
# Sequence (P01138 122-241, one chain of several): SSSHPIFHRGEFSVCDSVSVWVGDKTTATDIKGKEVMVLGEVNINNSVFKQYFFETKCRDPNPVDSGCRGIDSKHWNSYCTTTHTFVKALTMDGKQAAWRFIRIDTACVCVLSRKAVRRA
# RUN DESCRIPTION: cell_activity; neurite; TF-1 0.015
# PARTICULARS: tags: R&D Systems; chain copies: 2
QUANTITY: IC50 (nM)
Report as a plain number; the unit nM is understood.

Which IC50 value belongs to GGGUCCUGGCCAAGAGUUUCCGUCUCGUGGUCUGUUACCC (ssRNA, 2'-OMe G (G8,G34 2'-OH), dA, 2'-F C/U except 2'-OMe U4,C6,C10,C11,C21,U23,C26,U28,C32,U35,C38-40; 5',3' idT) [SEQ ID NO: 78(3)] ?
0.045
